Cited source: patent US20030077318A1

Listing: pKd of selected binders
Target: T1, soluble H-2K^b (K^bsol), heterodimer of truncated K^b heavy chain and murine β-2 microglobulin, purified empty from Drosophila cells (murine), P01901
T1 chain 1: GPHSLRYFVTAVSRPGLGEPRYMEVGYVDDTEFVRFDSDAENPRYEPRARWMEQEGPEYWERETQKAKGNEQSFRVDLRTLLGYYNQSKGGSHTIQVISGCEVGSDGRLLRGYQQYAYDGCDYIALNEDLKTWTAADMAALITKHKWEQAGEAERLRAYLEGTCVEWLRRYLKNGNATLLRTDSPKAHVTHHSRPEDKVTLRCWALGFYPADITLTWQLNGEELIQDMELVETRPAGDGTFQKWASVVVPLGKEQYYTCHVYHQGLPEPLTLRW
T1 chain 2: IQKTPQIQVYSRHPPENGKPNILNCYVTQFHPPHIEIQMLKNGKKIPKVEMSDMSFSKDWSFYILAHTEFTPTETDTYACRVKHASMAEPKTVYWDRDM
Assay: competitive RIA against [^125I]VSV-8 on K^bsol, P30 gel filtration, 23° C.
pKd: −log10 of the molar value.
MEASURE: pKd

* RGYVYQGL (modifications not checked) [VSV-8] | 8.43
* LRGYVYQGL (modifications not checked) [VSV-9N] | 8.14
* DLRGYVYQGL (modifications not checked) [VSV-10N] | 6.41
* RGYVYQGLKS (modifications not checked) [VSV-10C] | 7.68
* RGYVYQGLK (modifications not checked) [VSV-9C] | 8.16
